assayed-target: ΔCTD_Reg1 (amino acids 1 to 546 of human Regnase-1) phosphorylation by IKKβ (Homo sapiens, UniProt Q5D1E8)
Construct: made in house; host or cells: Expi293 cells
Sequence (Q5D1E8 1-546, stated change not applied): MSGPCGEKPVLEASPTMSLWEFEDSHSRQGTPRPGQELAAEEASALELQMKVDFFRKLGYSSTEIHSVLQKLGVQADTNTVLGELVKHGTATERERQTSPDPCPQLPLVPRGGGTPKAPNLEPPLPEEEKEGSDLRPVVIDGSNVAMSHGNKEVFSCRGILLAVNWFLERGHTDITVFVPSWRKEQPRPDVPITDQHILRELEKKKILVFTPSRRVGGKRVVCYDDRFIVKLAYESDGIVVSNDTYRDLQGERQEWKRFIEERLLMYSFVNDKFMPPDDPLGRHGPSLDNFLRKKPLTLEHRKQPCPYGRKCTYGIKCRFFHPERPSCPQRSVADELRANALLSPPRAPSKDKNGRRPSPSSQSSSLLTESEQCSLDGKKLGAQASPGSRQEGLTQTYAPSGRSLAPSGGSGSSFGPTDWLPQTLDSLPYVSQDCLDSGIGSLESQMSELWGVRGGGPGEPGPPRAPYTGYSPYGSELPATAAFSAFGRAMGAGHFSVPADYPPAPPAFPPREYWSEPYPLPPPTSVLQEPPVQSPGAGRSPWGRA
method: Regnase-1 phosphorylation inhibition by compounds (AlphaScreen), IKKβ, CTD-deficient Regnase-1
Type: biochemical
condition-info: Table 14; phosphorylation by IKKβ; read-out: Phosphorylation inhibition ΔCTD_Reg1, 50% inhibition concentration (IKKβ)
Method: […] Phosphorylated Regnase-1 was detected by the AlphaScreen system. After each of the above-mentioned phosphorylated Regnase-1 antibodies was added and reacted at room temperature for one hour, anti-FLAG AlphaLISA Acceptor Beads (manufactured by PerkinElmer) and Protein A AlphaScreen Donor Beads (manufactured by PerkinElmer) were added, and EnVision (manufactured by PerkinElmer) was used to measure the excited luminescence. […]
Residues, ends and D or L forms follow the SMILES beside them.
Listed next: entries and their corresponding pIC50.
pIC50 is a log-scale quantity: -log10 of the concentration expressed in molar.

{"compound": "CC[C@H](C)[C@@H]1NC(=O)[C@H](CC(=O)O)NC(=O)[C@H](C)N(C)C(=O)C[C@@H](C(=O)N2CCCC2)NC(=O)[C@H](Cc2ccc(O)cc2)NC(=O)[C@H](CC(=O)O)NC(=O)[C@H](Cc2c[nH]c3ccccc23)NC(=O)[C@H](Cc2ccc(O)cc2)NC(=O)[C@H](CC(=O)O)NC(=O)[C@H](Cc2ccccc2)NC(=O)[C@H](Cc2c[nH]c3ccccc23)NC1=O [PP18] (HELM PEPTIDE1{[meA].D.I.W.F.D.Y.W.D.Y.D.[C1CCN([*:1])C1]}$PEPTIDE1,PEPTIDE1,1:R1-11:R3$$$V2.0)", "pIC50": 6.70}

The record that follows has no pIC50 shown yet.
Respond only with pIC50 recorded for CC[C@H](C)[C@@H]1NC(=O)[C@H](CC(N)=O)NC(=O)[C@H]([C@@H](C)CC)NC(=O)[C@H](Cc2ccc(O)cc2)NC(=O)[C@H](Cc2c[nH]c3ccccc23)NC(=O)[C@H](CO)NC(=O)[C@H](CC(N)=O)NC(=O)[C@H](C)N(C)C(=O)C[C@@H](C(=O)N2CCCC2)NC(=O)[C@H](Cc2c[nH]cn2)NC(=O)CNC(=O)[C@H](Cc2c[nH]c3ccccc23)NC1=O [PP15] (HELM PEPTIDE1{[meA].N.S.W.Y.I.N.I.W.G.H.D.[C1CCN([*:1])C1]}$PEPTIDE1,PEPTIDE1,1:R1-12:R3$$$V2.0)
4.51
